System: A2780
assay info: Cytotoxicity against taxol-resistant human A2780 cells by MTT assay
Assay type: functional, cell-based
readout label: pIC50
Convention used: pIC50 is expressed as -log10 of the molar concentration.

Record request: pIC50 value, item CCCCC(=O)Oc1cc(/C=C/C(=O)c2ccc(OC)c3c2OC(C)(C)C=C3)ccc1OC 5.23

Record request: pIC50 value, item CC(=O)O[C@H]1C(=O)[C@@]2(C)[C@H]([C@H](OC(=O)c3ccccc3)[C@]3(O)C[C@H](OC(=O)[C@H](O)[C@@H](NC(=O)c4ccccc4)c4ccccc4)C(C)=C1C3(C)C)[C@]1(OC(C)=O)CO[C@@H]1C[C@@H]2O 5.08

Record request: pIC50 value, item CCC(=O)Oc1cc(/C=C/C(=O)c2ccc(OC)c3c2OC(C)(C)C=C3)ccc1OC 5.88

----------
assay info: Cytotoxicity against human SPC-A1 cells by MTT assay
Assay type: functional, cell-based
experimental setup: SPCA1
readout label: pIC50
Convention used: pIC50 is expressed as -log10 of the molar concentration.

Record request: pIC50 value, item CC(=O)O[C@H]1C(=O)[C@@]2(C)[C@H]([C@H](OC(=O)c3ccccc3)[C@]3(O)C[C@H](OC(=O)[C@H](O)[C@@H](NC(=O)c4ccccc4)c4ccccc4)C(C)=C1C3(C)C)[C@]1(OC(C)=O)CO[C@@H]1C[C@@H]2O 5.28

----------
assay info: Cytotoxicity against human SPC-A1 cells by MTT assay
Assay type: functional, cell-based
experimental setup: SPCA1
Readings of IC50 for the listed compounds
Write the number in µM without appending the unit.

Below are worked cases with known answers.
COc1cc2c(c(OC)c1OC)-c1ccc(OC)c(=O)cc1[C@@H](NC(C)=O)CC2 [COLCHICINE]
80
CCCCC(=O)Oc1cc(/C=C/C(=O)c2ccc(OC)c3c2OC(C)(C)C=C3)ccc1OC
18.1

Would you kindly look at the next entry?
Record request: IC50 value, item CCC(=O)Oc1cc(/C=C/C(=O)c2ccc(OC)c3c2OC(C)(C)C=C3)ccc1OC 22.3
